// provenance: patent US20240392024A1

Molecular target: T1, TNFR2-His (Sino Biological, 10417-H08H, NP_001057.1 Met1-Asp257, with multi-histidine tag expressed on … (human, UniProt P20333 23-257))
T1 construct: range 1-257; Bought protein; also called recombinant human TNFR2 protein; TNFR2-His antigen; not shown: C-terminal multi-histidine tag
T1 sequence (looked up): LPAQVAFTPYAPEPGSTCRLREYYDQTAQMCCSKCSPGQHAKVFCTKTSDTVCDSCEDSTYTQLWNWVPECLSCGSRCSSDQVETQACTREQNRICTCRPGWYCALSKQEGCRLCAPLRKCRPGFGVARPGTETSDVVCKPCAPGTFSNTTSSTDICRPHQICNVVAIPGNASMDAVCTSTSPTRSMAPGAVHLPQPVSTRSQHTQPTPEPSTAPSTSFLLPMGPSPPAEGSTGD
Assay: ELISA, plate coated with TNFR2-His
Would you kindly list EC50 for each of these binders?
Give the value in µg/mL but do not write µg/mL after it.

Which EC50 value belongs to 11G2huVH3 + huVL1(P07264) (antibody, V domains shown, Humanized 11G2) VH: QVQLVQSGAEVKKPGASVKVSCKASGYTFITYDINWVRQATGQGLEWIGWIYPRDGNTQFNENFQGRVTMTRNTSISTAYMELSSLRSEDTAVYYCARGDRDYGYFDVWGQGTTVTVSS VL: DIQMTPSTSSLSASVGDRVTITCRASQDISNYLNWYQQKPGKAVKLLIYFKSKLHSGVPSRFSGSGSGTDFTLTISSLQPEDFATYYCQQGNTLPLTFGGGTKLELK ?
0.049

Data request, read-out EC50, for 11G2huVH2 + huVL1(P07263) (antibody, V domains shown, Humanized 11G2) VH: QVQLVQSGAEVKKPGASVKVSCKASGYTFITYDINWVRQAPGQGLEWIGWIYPRDGNTQFNENFKGRVTMTTDTSTSTAYMELRSLRSDDTAVYYCARGDRDYGYFDVWGQGTTVTVSS VL: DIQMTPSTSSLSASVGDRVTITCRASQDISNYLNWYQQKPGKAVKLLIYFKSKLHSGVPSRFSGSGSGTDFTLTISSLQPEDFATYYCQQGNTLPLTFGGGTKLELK
0.0502

Which measured EC50 value corresponds to 11G2huVH2 + huVL3(P07272) (antibody, V domains shown, Humanized 11G2) VH: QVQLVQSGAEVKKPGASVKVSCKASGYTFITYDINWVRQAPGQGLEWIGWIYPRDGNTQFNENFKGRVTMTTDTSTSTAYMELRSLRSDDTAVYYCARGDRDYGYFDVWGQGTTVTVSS VL: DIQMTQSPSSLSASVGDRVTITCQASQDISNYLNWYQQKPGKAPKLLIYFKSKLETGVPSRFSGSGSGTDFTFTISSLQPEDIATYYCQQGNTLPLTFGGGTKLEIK ?
0.0859
